# SYSTEM_TESTED: BRAF V600E (Homo sapiens, UniProt P15056, V600E)
# Construct: endogenous C-terminal HiBiT fusion tag on BRAF V600E allele; endogenous in cells; host or cells: A375 clone 1F10 (CRISPR-Cas9 knock-in of the HiBiT tag; parental A375 from ATCC)
# Sequence (P15056 whole entry V600E, the tested form may be a part): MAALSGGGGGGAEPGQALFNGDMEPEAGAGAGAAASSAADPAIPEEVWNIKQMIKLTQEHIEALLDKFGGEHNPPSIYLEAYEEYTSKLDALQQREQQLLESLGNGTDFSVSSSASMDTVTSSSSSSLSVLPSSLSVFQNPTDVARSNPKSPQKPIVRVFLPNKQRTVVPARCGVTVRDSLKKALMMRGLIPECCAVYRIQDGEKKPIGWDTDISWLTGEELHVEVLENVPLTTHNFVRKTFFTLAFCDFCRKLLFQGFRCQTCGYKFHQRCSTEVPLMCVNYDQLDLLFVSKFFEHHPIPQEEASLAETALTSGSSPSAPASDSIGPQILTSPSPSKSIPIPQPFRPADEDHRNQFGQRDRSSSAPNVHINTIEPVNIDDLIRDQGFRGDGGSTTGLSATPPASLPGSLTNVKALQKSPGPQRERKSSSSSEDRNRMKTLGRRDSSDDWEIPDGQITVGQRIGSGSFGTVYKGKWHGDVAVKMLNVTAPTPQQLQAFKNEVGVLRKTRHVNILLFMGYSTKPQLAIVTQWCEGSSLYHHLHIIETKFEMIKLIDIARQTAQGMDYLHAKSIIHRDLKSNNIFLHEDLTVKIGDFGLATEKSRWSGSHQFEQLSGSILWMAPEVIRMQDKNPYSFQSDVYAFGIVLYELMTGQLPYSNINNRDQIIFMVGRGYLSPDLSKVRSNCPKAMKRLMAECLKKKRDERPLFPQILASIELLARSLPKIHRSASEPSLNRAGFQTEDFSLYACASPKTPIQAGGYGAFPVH
# ASSAY_OVERVIEW: BRAF HiBiT degradation assay, C-terminal HiBiT-tagged BRAF V600E A375 cells (clone 1F10), Nano-Glo HiBiT Lytic assay
# Assay type: cell-based
# EXPERIMENTAL_CONTEXT: A375 (BRAF V600E); DC50 at 50%: fitted conc. at Y=50
The following molecules are shown together with reported DC50 values.

MOLECULE	DC50
CCCS(=O)(=O)Nc1cccc(-c2nc(C(C)(C)C)sc2-c2ccnc(Nc3cccc(C4CCN(C(=O)CN5CCC(c6ccc(NC7CCC(=O)NC7=O)cc6)CC5)CC4)c3)n2)c1F (racemic)	10 to 50 nM
CCCS(=O)(=O)Nc1cccc(-c2nc(C3CCN(CC4CCN(C[C@H]5CC[C@H](Oc6ccc(C7CCC(=O)NC7=O)cc6)CC5)CC4)CC3)sc2-c2ccnc(N)n2)c1F (mixture of isomers)	10 to 50 nM
CCCS(=O)(=O)Nc1cccc(-c2cn(-c3ccc(N4CCN(CC5CCN(c6ccc([C@@H]7CCC(=O)NC7=O)cn6)CC5)CC4)cc3)nc2-c2ccncc2)c1F	10 to 50 nM

Prompt: Find the measured DC50: item CCN(C)S(=O)(=O)Nc1cccc(-c2nc(C(C)(C)C)sc2-c2ccnc(Nc3ccc(N4CCN(C(=O)[C@H]5CC[C@H](CN6CCc7ccc(C8CCC(=O)NC8=O)cc7C6)CC5)CC4)cn3)n2)c1F (mixture of isomers) , target or system BRAF V600E (Homo sapiens, UniProt P15056, V600E).
Response: 50 to 500 nM

###

# SYSTEM_TESTED: BRAF V600E (Homo sapiens, UniProt P15056, V600E)
# Construct: endogenous C-terminal HiBiT fusion tag on BRAF V600E allele; endogenous in cells; host or cells: A375 clone 1F10 (CRISPR-Cas9 knock-in of the HiBiT tag; parental A375 from ATCC)
# ASSAY_OVERVIEW: BRAF HiBiT degradation assay, C-terminal HiBiT-tagged BRAF V600E A375 cells (clone 1F10), Nano-Glo HiBiT Lytic assay
# Assay type: cell-based
# EXPERIMENTAL_CONTEXT: A375 (BRAF V600E, Class 1); DC50 at 50% degradation
MEASUREMENT_KIND: DC50

Answered examples (2):
COMPOUND	SYSTEM_TESTED	DC50
O=C1CC[C@H](c2ccc(N3CCC(CN4CCN(c5ccc(-n6cc(-c7cc(C(F)F)cc(NS(=O)(=O)N8CCCC8)c7F)c(-c7ccncc7)n6)cc5)CC4)CC3)cc2)C(=O)N1 [Compound 349]	BRAF V600E (Homo sapiens, UniProt P15056, V600E)	< 10 nM
C[C@@H]1CN(c2ccc(-n3cc(-c4cc(Cl)cc(NS(=O)(=O)N5CCCC5)c4F)c(-c4ccncc4)n3)cc2)CCN1CC1CCN(c2ccc([C@H]3CCC(=O)NC3=O)cc2)CC1 [Compound 316]	BRAF V600E (Homo sapiens, UniProt P15056, V600E)	< 10 nM

Prompt: # lookup: DC50 of O=C1CC[C@H](c2ccc(N3CCC(CN4CCN(c5ccc(-n6cc(-c7cc(Cl)cc(NS(=O)(=O)N8CCCC8)c7F)c(-c7ccncc7)n6)c(F)c5)CC4)CC3)cc2)C(=O)N1 [Compound 281]
Response: < 10 nM

Prompt: Follow-up item: O=C1CCN(c2ccc(N3CCC(CN4CCN(c5ccc(-n6cc(-c7cc(F)cc(NS(=O)(=O)N8CCCC8)c7F)c(-c7ccncc7)n6)cc5)CC4)CC3)cc2)C(=O)N1 [Compound 300]
Response: 10 to 50 nM

###

# SYSTEM_TESTED: BRAF G469A (Homo sapiens, UniProt P15056, G469A)
# Construct: Horizon Discovery (HCT-116 BRAF−/− cells); host or cells: HCT-116 BRAF−/− cells, clone 34, lentiviral transduction
# Sequence (P15056 whole entry G469A): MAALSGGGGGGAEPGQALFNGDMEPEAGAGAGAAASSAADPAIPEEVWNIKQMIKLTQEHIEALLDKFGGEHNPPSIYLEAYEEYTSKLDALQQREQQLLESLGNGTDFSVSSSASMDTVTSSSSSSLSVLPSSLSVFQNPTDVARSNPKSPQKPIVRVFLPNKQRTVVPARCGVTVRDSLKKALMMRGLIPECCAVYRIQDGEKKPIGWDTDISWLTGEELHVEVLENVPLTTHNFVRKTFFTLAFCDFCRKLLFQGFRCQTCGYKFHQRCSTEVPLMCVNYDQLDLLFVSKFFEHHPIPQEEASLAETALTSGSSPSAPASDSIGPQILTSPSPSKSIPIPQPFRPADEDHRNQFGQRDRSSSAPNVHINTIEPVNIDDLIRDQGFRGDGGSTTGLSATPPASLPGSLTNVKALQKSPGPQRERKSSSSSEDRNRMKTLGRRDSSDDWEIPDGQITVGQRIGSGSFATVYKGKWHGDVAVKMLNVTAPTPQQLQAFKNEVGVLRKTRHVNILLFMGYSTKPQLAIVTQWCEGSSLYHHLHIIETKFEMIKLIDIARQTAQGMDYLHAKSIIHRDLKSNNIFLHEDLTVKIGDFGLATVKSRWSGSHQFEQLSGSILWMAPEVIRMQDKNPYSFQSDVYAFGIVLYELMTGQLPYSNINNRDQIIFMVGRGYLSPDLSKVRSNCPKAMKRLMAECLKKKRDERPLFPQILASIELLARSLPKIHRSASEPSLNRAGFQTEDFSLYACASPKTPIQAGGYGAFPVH
# ASSAY_OVERVIEW: BRAF HiBiT degradation assay, C-terminal HiBiT-tagged BRAF G469A overexpressed in HCT-116 BRAF−/− cells (clone 34), Nano-Glo HiBiT Lytic assay
# Assay type: cell-based
# EXPERIMENTAL_CONTEXT: BRAF G469A (Class 2), HCT-116 BRAF−/− cells; observed Dmax relative to DMSO control
Overview of reported Dmax across a group of compounds:

The cases that follow already have their Dmax on record.
COMPOUND	SYSTEM_TESTED	MEASUREMENT_KIND	OBSERVED_VALUE
O=C1CCN(c2ccc(N3CCC(CN4CCN(c5ccc(-n6cc(-c7cc(F)cc(NS(=O)(=O)N8CC[C@@H](F)C8)c7F)c(-c7ccncc7)n6)nc5)CC4)CC3)cc2)C(=O)N1 [Compound 303]	BRAF G469A (Homo sapiens, UniProt P15056, G469A)	Dmax	30 to 70%
O=C1CC[C@H](c2ccc(N3CCC(CN4CCN(c5ccc(-n6cc(-c7cc(Cl)cc(NS(=O)(=O)N8CC[C@@H](F)C8)c7F)c(-c7ccncc7)n6)cc5)CC4)CC3)nc2)C(=O)N1 [Compound 264]	BRAF G469A (Homo sapiens, UniProt P15056, G469A)	Dmax	> 70%
O=C1CCC(c2ccc(N3CCC(CN4CCN(c5ccc(-n6cc(-c7cc(C(F)F)cc(NS(=O)(=O)N8CCCC8)c7F)c(-c7ccncc7)n6)cc5)CC4)CC3)nc2)C(=O)N1 (racemic) [Compound 350]	BRAF G469A (Homo sapiens, UniProt P15056, G469A)	Dmax	> 70%

Now for the compound whose Dmax we want.
Prompt: Observed Dmax on BRAF G469A (Homo sapiens, UniProt P15056, G469A) for O=C1CCC(c2ccc(N3CCC(CN4CCN(c5ccc(-n6cc(-c7cc(Cl)cc(NS(=O)(=O)N8CCCC8)c7F)c(-c7ccncc7)n6)cn5)CC4)CC3)nc2)C(=O)N1 (racemic) [Compound 352] , please.
Response: > 70%

###

# SYSTEM_TESTED: BRAF D594G (Homo sapiens, UniProt P15056, D594G)
# Construct: Horizon Discovery (HCT-116 BRAF−/− cells); host or cells: HCT-116 BRAF−/− cells, clone 63, lentiviral transduction
# Sequence (P15056 whole entry D594G): as the sequence (P15056 whole entry V600E, the tested form may be a part) above, with D594G, E600V counted along it
# ASSAY_OVERVIEW: BRAF HiBiT degradation assay, C-terminal HiBiT-tagged BRAF D594G overexpressed in HCT-116 BRAF−/− cells (clone 63), Nano-Glo HiBiT Lytic assay
# Format: cell-based
# EXPERIMENTAL_CONTEXT: BRAF D594G (Class 3), HCT-116 BRAF−/− cells; DC50 at 50% degradation
MEASUREMENT_KIND: DC50

Guide cases for DC50, answers given:
MOLECULE	SYSTEM_TESTED	MEASUREMENT_KIND	OBSERVED_VALUE
O=C1CC[C@H](c2ccc(N3CCC(CN4CCN(c5ccc(-n6cc(-c7cc(Cl)cc(NS(=O)(=O)N8CC[C@@H](F)C8)c7F)c(-c7ccncc7)n6)c(F)c5)CC4)CC3)cc2)C(=O)N1	BRAF D594G (Homo sapiens, UniProt P15056, D594G)	DC50	< 10 nM
O=C1CC[C@H](c2ccc(N3CCC(CN4CCN(c5ccc(-n6cc(-c7cc(Cl)cc(NS(=O)(=O)N8CC[C@@H](F)C8)c7F)c(-c7ccncc7)n6)nc5)CC4)CC3)cc2)C(=O)N1	BRAF D594G (Homo sapiens, UniProt P15056, D594G)	DC50	< 10 nM
O=C1CCC(c2ccc(N3CCC(CN4CCN(c5ccc(-n6cc(-c7cc(Cl)cc(NS(=O)(=O)N8CCCC8)c7F)c(-c7ccncc7)n6)nc5)CC4)CC3)nc2)C(=O)N1 (racemic)	BRAF D594G (Homo sapiens, UniProt P15056, D594G)	DC50	< 10 nM
O=C1CCC(c2ccc(N3CCC(CN4CCN(c5ccc(-n6cc(-c7cc(Cl)cc(NS(=O)(=O)N8CC[C@@H](F)C8)c7F)c(-c7ccncc7)n6)c(F)c5)CC4)CC3)nc2)C(=O)N1 (mixture of isomers)	BRAF D594G (Homo sapiens, UniProt P15056, D594G)	DC50	< 10 nM

Prompt: # DC50 lookup, item `CCCS(=O)(=O)Nc1cc(Cl)cc(-c2cn(-c3ccc(N4CCN(CC5CCN(c6ccc(N7CCC(=O)NC7=O)cc6)CC5)[C@@H](C)C4)cc3)nc2-c2ccncc2)c1F`
Response: > 500 nM

###

# SYSTEM_TESTED: BRAF V600E (Homo sapiens, UniProt P15056, V600E)
# Construct: endogenous C-terminal HiBiT fusion tag on BRAF V600E allele; endogenous in cells; host or cells: A375 clone 1F10 (CRISPR-Cas9 knock-in of the HiBiT tag; parental A375 from ATCC)
# ASSAY_OVERVIEW: BRAF HiBiT degradation assay, C-terminal HiBiT-tagged BRAF V600E A375 cells (clone 1F10), Nano-Glo HiBiT Lytic assay
# Assay type: cell-based
# EXPERIMENTAL_CONTEXT: A375 (BRAF V600E); DC50 at 50%: fitted conc. at Y=50
# Procedure: An A375 cell line expressing a homozygous V600E mutation was purchased from ATCC (Manassas, VA, USA). […] HiBiT signal was measured by a Nano-Glo HiBiT Lytic assay (Promega cat. no. N3050). […] Luminesce units (LU) were read on an EnVision plate reader 2105 (Perkin Elmer). Percent protein remaining and viability remaining per sample were calculated as follows: […]
MEASUREMENT_KIND: DC50

COMPOUND	DC50
CCCS(=O)(=O)Nc1cccc(-c2nc(C3CCN(C(=O)C4CCN(CC5CCN(c6ccc(C7CCC(=O)NC7=O)cn6)CC5)CC4)CC3)sc2-c2ccncn2)c1F (racemic) [Compound 221]	0.01 to 0.05 µM
CCCS(=O)(=O)Nc1cccc(-c2nc(C)sc2-c2ccnc(Nc3ccc(C4CCN(CC5CCN(c6ccc(C7CCC(=O)NC7=O)cn6)CC5)CC4)cc3)n2)c1F (racemic) [Compound 54]	< 0.01 µM
CCCS(=O)(=O)Nc1cccc(-c2nc(C(C)(C)C)sc2-c2ccnc(Nc3ccc(N4CCN(C(=O)C5CCN(c6ccc(C7CCC(=O)NC7=O)cc6)CC5)CC4)cc3)n2)c1F (racemic) [Compound 38]	< 0.01 µM
CCCS(=O)(=O)Nc1cccc(-c2nc(C(C)(C)C)sc2-c2ccnc(Nc3cnn(CC4CCN(C(=O)[C@H]5CC[C@H](Oc6ccc(C7CCC(=O)NC7=O)cn6)CC5)CC4)c3)n2)c1F (mixture of isomers) [Compound 117]	< 0.01 µM

Prompt: Field: DC50 (BRAF V600E (Homo sapiens, UniProt P15056, V600E)). Entry: CCCS(=O)(=O)Nc1cccc(-c2nc(C(C)(C)C)sc2-c2ccnc(Nc3cnn(CC4CCN(CC[C@@H]5CCN(c6ccc(C7CCC(=O)NC7=O)cn6)C5)CC4)c3)n2)c1F (mixture of isomers) [Compound 81]
Response: 0.01 to 0.05 µM

Prompt: And for CCCS(=O)(=O)Nc1cccc(-c2nc(C)sc2-c2ccnc(Nc3ccc(C4CCN(C(=O)CC5CCN(c6ccc(NC7CCC(=O)NC7=O)cc6)CC5)CC4)cc3)n2)c1F (racemic) [Compound 44] ?
Response: < 0.01 µM

Prompt: Can you check CCCS(=O)(=O)Nc1cccc(-c2cn(C3CCN(C(=O)C4(C)CCN(C(=O)C5CCN(c6ccc(C7CCC(=O)NC7=O)cn6)CC5)CC4)CC3)nc2-c2ccncc2)c1F (racemic) [Compound 8] next?
Response: 0.01 to 0.05 µM

Prompt: Here is the next compound: CCCS(=O)(=O)Nc1cccc(-c2nc(C3CCN(C(=O)C4CCN(C(=O)C5CCN(c6ccc(C7CCC(=O)NC7=O)cn6)CC5)CC4)CC3)sc2-c2ccncn2)c1F (racemic) [Compound 220]
Response: < 0.01 µM

Prompt: Here is the next compound: CCCS(=O)(=O)Nc1cccc(-c2nc(C3CCN(C(=O)C4CCN(CC5CCN(c6cccc7c6n(C)c(=O)n7C6CCC(=O)NC6=O)CC5)CC4)CC3)sc2-c2ccnc(N)n2)c1F (racemic) [Compound 195]
Response: < 0.01 µM

Prompt: Do the same for CCCS(=O)(=O)Nc1cccc(-c2nc(C(C)(C)C)sc2-c2ccnc(Nc3cccc(OC4CCN(C(=O)C[C@@H]5CCN(c6ccc(C7CCC(=O)NC7=O)cc6)C5)CC4)c3)n2)c1F (mixture of isomers) [Compound 92] please
Response: > 0.5 µM
